target: RSV prefusion F (preF), DS-Cav1 (Respiratory syncytial virus, UniProt P03420 26-513); experiment: BLI, IgG on anti-human IgG sensor, 100 nM antigen
We begin with a simple list: items and their reported pKd.
Remember the convention: pKd equals -log10 of concentration in molar.

// query Quick check: pKd of ADI-41583 (antibody, V domains shown) VH: QVQLVQSGAEVKKPGSSVKVSCKASGGTFSRHTITWVRQAPGQGLEWMGRIAPIVGFANYAQKFQGRVTITADKSTSTAYMELRSLRSEDTAVYYCARRSEDYYGLDVWGQGTTVTVSS VL: DIVMTQSPSSLSASVGDRVTITCQASQDISNYLNWYQQKPGKAPKLLIYEASNLETGVPSRFSGSGSGTDFTFTISSLQPEDIATYYCQQYDNLFGGGTKLEIK ?
// result 9.18

// query Given ADI-41592 (antibody, V domains shown, also called Ab 866; Antibody Number 866) VH: EVQLVESGSELKKPGASVKVSCKASGYTFRTYVMNWVRQAPGQGLEWMGWINTNTGNPTYAQGFTGRFVFSLDTSVSTAYLQISSLKAEDTAVYYCARESIDDYDSSGYGRTFDYWGQGTLVTVSS VL: SYELTQPPSVSVSPGQTASIPCSGDKVGKTYVYWYQQTPGQSPGLVIYQDTKRPSGIPERFSGSSSGNTATLTISGTQTMDEADYYCQAWDTSTASYVFGTGTKLTVL , state its recorded pKd.
// result 8.43

Query binder follows.
// query What does the record list as pKd for ADI-41678 (antibody, V domains shown) VH: EVQLVESGGGVVQPGGSLRLSCAASGFTFRTYGMHWVRQAPGKGLEWVAVISYDGSNKYYADSLMGRFTISRDNSKNTLYLQMNSLRAEDTAVYYCAKCFVPGSGGWYEYYFDYWGQGTLVTVSS VL: QSVLTQPPSASGSPGQSVTISCTGTSSDVGGYNYVSWYQQHPGKAPKLMIYEVSKRPSGVPDRFSGSKSGNTASLTVSGLQAEDEADYYCSSYAGINNSVLFGGGTKLTVL ?
// result 8.53
